# Tested on: 967376-340-R-J2-PDC multicell spheroid viability;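 note: spheroids exposed to agents for 7 days before read-out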
# assay.comment: Anticancer human tumor 967376-340-R-J2-PDC patient-derived colon adenocarcinoma cell line growth inhibition [PI3K]
# conditions: curve of first compound; second compound 0.0316 µM
# From the text: Combinatorial screen of targeted agents with the PI3K inhibitors inavolisib, alpelisib, duvelisib, and copanlisib in multi-cell type tumor spheroids A high-throughput screen of multi-cell type tumor spheroids was designed to identify active combinations of targeted small molecules and PI3K pathway inhibitors. […] Compounds. […] If the clinical Cmax for an agent had not been determined, the highest concentration tested was 10 microM. […]
pIC50: −log10 of the molar value.
result.type: pIC50

GET /values?item= Cn1ncc(Cl)c1-c1cc(C(=O)NC(CN)Cc2cccc(F)c2)sc1Cl (stereo unspecified) + COc1c(OCCCN2CCOCC2)ccc2c3n(c(=NC(=O)c4cnc(N)nc4)nc12)CCN3 &system= 967376-340-R-J2-PDC multicell spheroid viability returns pIC50: 5.30

GET /values?item= CC(=O)c1c(C)c2cnc(Nc3ccc(N4CCNCC4)cn3)nc2n(C2CCCC2)c1=O + Cc1nc(NC(=O)N2CCCC2C(N)=O)sc1-c1ccnc(C(C)(C)C(F)(F)F)c1 &system= 967376-340-R-J2-PDC multicell spheroid viability returns pIC50: < 7.00

GET /values?item= CC(C)n1nc(-c2ccc3oc(N)nc3c2)c2c(N)ncnc21 + CC(Nc1ncnc2nc[nH]c12)c1cc2cccc(Cl)c2c(=O)n1-c1ccccc1 &system= 967376-340-R-J2-PDC multicell spheroid viability returns pIC50: < 7.00

GET /values?item= CNC(=O)c1ccc(N2C(=S)N(c3ccc(C#N)c(C(F)(F)F)c3)C(=O)C2(C)C)cc1F + Cc1nc(NC(=O)N2CCCC2C(N)=O)sc1-c1ccnc(C(C)(C)C(F)(F)F)c1 &system= 967376-340-R-J2-PDC multicell spheroid viability returns pIC50: < 5.00

GET /values?item= C#Cc1c(F)ccc2cc(O)cc(-c3ncc4c(N5CC6CCC(C5)N6)nc(OCC56CCCN5CC(F)C6)nc4c3F)c12 (stereo unspecified) + CC(Nc1ncnc2nc[nH]c12)c1cc2cccc(Cl)c2c(=O)n1-c1ccccc1 &system= 967376-340-R-J2-PDC multicell spheroid viability returns pIC50: < 5.00

GET /values?item= CC(C)n1nc(-c2ccc3oc(N)nc3c2)c2c(N)ncnc21 + CC(Nc1ccc2c(c1)OCCn1cc(N3C(=O)OCC3C(F)F)nc1-2)C(N)=O &system= 967376-340-R-J2-PDC multicell spheroid viability returns pIC50: 7.14

GET /values?item= Cn1ncnc1[C@H]1c2n[nH]c(=O)c3cc(F)cc(c23)N[C@@H]1c1ccc(F)cc1 + COc1c(OCCCN2CCOCC2)ccc2c3n(c(=NC(=O)c4cnc(N)nc4)nc12)CCN3 &system= 967376-340-R-J2-PDC multicell spheroid viability returns pIC50: < 7.00

GET /values?item= Cn1cnc2c(F)c(Nc3ccc(Br)cc3Cl)c(C(=O)NOCCO)cc21 + Cc1nc(NC(=O)N2CCCC2C(N)=O)sc1-c1ccnc(C(C)(C)C(F)(F)F)c1 &system= 967376-340-R-J2-PDC multicell spheroid viability returns pIC50: 6.18

GET /values?item= CC(=O)c1c(C)c2cnc(Nc3ccc(N4CCNCC4)cn3)nc2n(C2CCCC2)c1=O + COc1c(OCCCN2CCOCC2)ccc2c3n(c(=NC(=O)c4cnc(N)nc4)nc12)CCN3 &system= 967376-340-R-J2-PDC multicell spheroid viability returns pIC50: < 7.00

GET /values?item= CC1(C)CCC(Nc2ncc(C(F)(F)F)c(-c3c[nH]c4c(P(C)(C)=O)c(C#N)ccc34)n2)CN1 (stereo unspecified) + Cc1nc(NC(=O)N2CCCC2C(N)=O)sc1-c1ccnc(C(C)(C)C(F)(F)F)c1 &system= 967376-340-R-J2-PDC multicell spheroid viability returns pIC50: 5.42

GET /values?item= CC(Cn1ccc(-c2ccc(C#N)c(Cl)c2)n1)NC(=O)c1cc(C(C)O)[nH]n1 (stereo unspecified) + CC(Nc1ncnc2nc[nH]c12)c1cc2cccc(Cl)c2c(=O)n1-c1ccccc1 &system= 967376-340-R-J2-PDC multicell spheroid viability returns pIC50: < 5.00
